target: PDI (PDIA1), purified / recombinant wild-type human PDI (Homo sapiens, UniProt P07237); assay: biochemical
Sequence (P07237 18-508): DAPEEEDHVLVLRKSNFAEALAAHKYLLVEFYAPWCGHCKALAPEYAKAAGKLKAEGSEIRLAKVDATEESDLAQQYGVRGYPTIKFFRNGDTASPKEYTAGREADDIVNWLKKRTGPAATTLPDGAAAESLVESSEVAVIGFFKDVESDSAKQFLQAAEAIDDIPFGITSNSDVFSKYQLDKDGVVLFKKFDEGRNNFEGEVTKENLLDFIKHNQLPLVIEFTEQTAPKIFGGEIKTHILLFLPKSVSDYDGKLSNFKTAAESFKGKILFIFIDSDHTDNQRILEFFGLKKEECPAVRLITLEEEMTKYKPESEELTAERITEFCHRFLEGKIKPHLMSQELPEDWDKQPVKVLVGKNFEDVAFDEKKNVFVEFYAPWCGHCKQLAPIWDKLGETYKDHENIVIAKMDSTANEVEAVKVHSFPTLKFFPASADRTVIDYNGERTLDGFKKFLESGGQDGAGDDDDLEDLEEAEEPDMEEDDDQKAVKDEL
assay readout: Kd

get_value(item= C[C@]12CC[C@@H]3c4cc(O)c(O)cc4CC[C@H]3[C@@H]1CC[C@@H]2O [2-OH-E2, 1,3,5([10])-estratrien-2,3,17β-triol] , readout=Kd) returns 0.0613 to 0.0683 µM

* * *

molecular target: PDI (PDIA1), purified / recombinant wild-type human PDI (Homo sapiens); experiment: biochemical
assay readout: Kd

get_value(item= C[C@]12CC[C@@H]3c4cc(O)c(O)cc4CC[C@H]3[C@@H]1CCC2=O [2-OH-E1, 1,3,5([10])-Estratrien-2,3-diol-17-one] , readout=Kd) returns 24.2 nM
